Hey, just so you know, these numbers are from patent US20120129842A1.

measurement target: full-length proMMP9(1-707) (SEQ ID NO:1) (Homo sapiens, UniProt P14780, R574P)
Construct: made in house; host or cells: HEK293 (proMMP9, secreted); E. coli (MMP3)
Sequence (P14780 20-707 R574P): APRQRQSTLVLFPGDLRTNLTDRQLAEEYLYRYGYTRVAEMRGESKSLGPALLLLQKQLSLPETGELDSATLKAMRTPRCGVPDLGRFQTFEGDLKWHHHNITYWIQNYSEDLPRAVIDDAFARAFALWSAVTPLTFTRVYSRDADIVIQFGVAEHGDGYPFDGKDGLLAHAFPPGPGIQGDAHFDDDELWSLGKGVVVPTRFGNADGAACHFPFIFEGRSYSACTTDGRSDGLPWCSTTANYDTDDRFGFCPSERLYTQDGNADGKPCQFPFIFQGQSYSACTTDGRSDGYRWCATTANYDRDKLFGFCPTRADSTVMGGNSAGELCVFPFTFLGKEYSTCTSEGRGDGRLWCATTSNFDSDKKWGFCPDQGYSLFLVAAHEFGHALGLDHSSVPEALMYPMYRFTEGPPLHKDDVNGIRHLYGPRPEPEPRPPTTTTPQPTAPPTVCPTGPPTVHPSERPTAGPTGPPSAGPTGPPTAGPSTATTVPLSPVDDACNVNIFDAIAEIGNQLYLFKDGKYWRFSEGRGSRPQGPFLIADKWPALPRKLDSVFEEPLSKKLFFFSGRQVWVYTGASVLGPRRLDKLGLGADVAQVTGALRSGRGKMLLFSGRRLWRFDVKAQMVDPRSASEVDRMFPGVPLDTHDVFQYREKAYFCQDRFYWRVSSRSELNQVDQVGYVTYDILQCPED
protocol: proMMP9/MMP3 P126 Activation Assay
Assay type: biochemical
experimental context: 20 nM proMMP9, 20 nM MMP3, 80 min 37° C.
parameter: log10(IC50) (log10 of the value in nM)
Please note: log10 values; quantity IC50; unit nM.

Here are 3 compounds together with their reported answers.
{"columns": ["compound", "measurement target", "recorded value"],
 "data": [
  ["COc1ccc([N+](=O)[O-])cc1Nc1nc(-c2sc(NC(C)=O)nc2C)cs1 [Example 68]", "full-length proMMP9(1-707) (SEQ ID NO:1) (Homo sapiens, UniProt P14780, R574P)", 1.99],
  ["Cc1nc(C)c(-c2csc(Nc3cc(C(N)=O)ccc3OC(F)(F)F)n2)s1 [Example 17]", "full-length proMMP9(1-707) (SEQ ID NO:1) (Homo sapiens, UniProt P14780, R574P)", 2.66],
  ["Cc1nc(C)c(-c2csc(Nc3cc(S(C)(=O)=O)ccc3OC(C)C)n2)s1 [Example 45]", "full-length proMMP9(1-707) (SEQ ID NO:1) (Homo sapiens, UniProt P14780, R574P)", 2.92]
]}

Now consider the entry below.
Input line: Please give the documented log10(IC50) of Cc1nc(S(C)(=O)=O)sc1-c1csc(Nc2cc(C(N)=O)ccc2OC(C)C)n1 [Example 132]
Output line: 2.86
